Sourced from ChEMBL document CHEMBL1125891

target: Muscarinic acetylcholine receptor M1 (Rattus norvegicus, UniProt P08482); assay: Binding activity against rat muscarinic acetylcholine receptor M1 using [3H]QNB as the radioligand
Sequence (P08482 whole entry): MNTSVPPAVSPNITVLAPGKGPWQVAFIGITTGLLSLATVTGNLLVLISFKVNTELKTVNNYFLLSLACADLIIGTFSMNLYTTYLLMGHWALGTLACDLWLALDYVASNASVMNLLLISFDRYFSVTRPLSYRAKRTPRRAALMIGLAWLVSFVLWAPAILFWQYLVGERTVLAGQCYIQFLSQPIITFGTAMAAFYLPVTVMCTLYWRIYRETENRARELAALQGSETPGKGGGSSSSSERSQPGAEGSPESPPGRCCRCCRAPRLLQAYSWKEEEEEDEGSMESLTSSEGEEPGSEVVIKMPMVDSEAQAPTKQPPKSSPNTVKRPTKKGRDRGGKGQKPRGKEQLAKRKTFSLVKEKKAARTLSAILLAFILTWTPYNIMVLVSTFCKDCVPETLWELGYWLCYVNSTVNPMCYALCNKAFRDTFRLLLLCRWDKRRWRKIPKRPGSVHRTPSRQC
experimental readout: pKi
// scale note: pKi = -log10(conc_M); give the bare number

Please review the following examples before continuing.
>>> measured_result("CC(=O)O[C@H]1CC2CC(C1)N([C@H](C)c1ccccc1)C2 (some centres not stated)")
4.89
>>> measured_result("CC(=O)O[C@@H]1CC2CC(C1)N(C)C2 (single isomer, unassigned; (-))")
4.66
>>> measured_result("CC(=O)O[C@H]1CC2CC(C1)N(C)C2 (stereo in doubt; 8)")
5.04

Q: Lab request: please report pKi under test system Muscarinic acetylcholine receptor M1 (Rattus norvegicus, UniProt P08482) for CN1CC2CC1C[C@@H](OC(=O)C(C)(c1ccccc1)c1ccccc1)C2 (stereo in doubt; 1)
Result: 10.06

Q: Okay, and CC(=O)O[C@@H]1C[C@@H]2C[C@H](C1)N([C@H](C)c1ccccc1)C2 (stereo in doubt; 13) ?
Result: 5.04

Q: Also check CC(=O)O[C@H]1CC2CC(C1)N(C(C)c1ccccc1)C2 (some centres not stated)
Result: 5.56

Q: // same read-out, input: CC(=O)O[C@H]1CC2CC(C1)N(C)C2 (single isomer, unassigned; (-))
Result: 5.14

* * *

biological target: Muscarinic acetylcholine receptor
experimental readout: Ki
State the value with its unit after it.

Observe how each entry below is paired with its result.
>>> measured_result("CC(=O)O[C@H]1CC2CC(C1)N(C(C)c1ccccc1)C2 (some centres undefined)")
"0.113 µM"
>>> measured_result("CC(=O)O[C@H]1CC2CC(C1)N(C)C2 (stereo in doubt; 8)")
"1.15 µM"
>>> measured_result("CC(=O)O[C@@H]1CC2CC(C1)N(C)C2 (stereo in doubt; 9)")
"7.82 µM"
>>> measured_result("CC(=O)O[C@@H]1C[C@@H]2C[C@H](C1)N([C@H](C)c1ccccc1)C2 (stereo in doubt; 12)")
"23.3 µM"
>>> measured_result("CC(=O)O[C@H]1CC2CC(C1)N(C)C2 (single isomer, unassigned; (-))")
"6.55 µM"

Q: Need Ki, item CC(=O)O[C@@H]1CC2CC(C1)N(C)C2 (single isomer, unassigned; (-))
Result: 33.9 µM

Q: CC(=O)O[C@@H]1CC2CC(C1)N(C)C2 (single isomer, unassigned; (+)) ?
Result: 10.4 µM

Q: Now consider CC(=O)O[C@@H]1C[C@@H]2C[C@H](C1)N([C@H](C)c1ccccc1)C2 (stereo in doubt; 13) .
Result: 4.15 µM

Q: Entry CC(=O)O[C@H]1CC2CC(C1)N([C@H](C)c1ccccc1)C2 (some centres undefined) please
Result: 1.95 µM

* * *

target: Muscarinic acetylcholine receptor; test: Inhibition of methacholine induced phasic contraction of guinea pig ileum; format: functional, tissue-based, Cavia porcellus
This section presents molecules with their documented -Log Kd values.
Respond with the number and no other words.

>>> measured_result("CC(C(=O)O[C@H]1CC2CC(C1)N(Cc1ccccc1)C2)(c1ccccc1)c1ccccc1 (some centres undefined)")
8.04

Q: // -Log Kd lookup, key: CN1CC2CC1C[C@@H](OC(=O)C(c1ccccc1)c1ccccc1)C2 (some centres undefined)
Result: 8.45

Q: What about CN1CC2CC1C[C@H](OC(=O)C(C)(c1ccccc1)c1ccccc1)C2 (some centres undefined) ?
Result: 8.44

Q: And the next one, CN1CC2CC1C[C@@H](OC(=O)C(C)(c1ccccc1)c1ccccc1)C2 (stereo in doubt; 1) ?
Result: 10.46

* * *

target: Muscarinic acetylcholine receptor; assay: Inhibition of [3H]QNB binding against muscarinic acetylcholine receptor in rat heart.
API: label(entry) gives 1 (yes) if the entry's Ki is strictly smaller than 9 nM; on equality or larger values it gives 0 (no).

>>> classification("CN1CC2CC1C[C@@H](OC(=O)C(c1ccccc1)c1ccccc1)C2 (stereo not given in full)")
"1 (yes)"
>>> classification("CN1CC2CC1C[C@H](OC(=O)C(C)(c1ccccc1)c1ccccc1)C2 (stereo not given in full)")
"0 (no)"
>>> classification("CC(C(=O)O[C@H]1CC2CC(C1)N(Cc1ccccc1)C2)(c1ccccc1)c1ccccc1 (stereo not given in full)")
"0 (no)"
>>> classification("CN1CC2CC1C[C@H](OC(=O)C(c1ccccc1)c1ccccc1)C2 (stereo not given in full)")
"0 (no)"

Let us examine a further case.
Q: Dear reviewer, please state whether CN1CC2CC1C[C@@H](OC(=O)C(C)(c1ccccc1)c1ccccc1)C2 (stereo in doubt; 1) has Ki strictly beneath 9 nM.
Result: 1 (yes)

* * *

log10 of Ki data for Muscarinic acetylcholine receptor follow.
All values: base-10 log of Ki in µM.

Q: Any idea what log10 of Ki was measured for CC(=O)O[C@H]1CC2CC(C1)N(C(C)c1ccccc1)C2 (stereo partly drawn) ?
Result: 0.55

Q: // repeat for CN1CC2CC1C[C@@H](OC(=O)C(c1ccccc1)c1ccccc1)C2 (stereo partly drawn) and report
Result: -2.72

Q: Next up: CC(=O)O[C@H]1CC2CC(C1)N(C)C2 (single isomer, unassigned; (+))
Result: 0.93

Q: Next entry: CN1CC2CC1C[C@@H](OC(=O)C(C)(c1ccccc1)c1ccccc1)C2 (stereo in doubt; 1)
Result: -3.89

Q: Okay, and CC(C(=O)O[C@H]1CC2CC(C1)N(Cc1ccccc1)C2)(c1ccccc1)c1ccccc1 (stereo partly drawn) ?
Result: -2.02

Q: Entry to check: CN1CC2CC1C[C@H](OC(=O)C(C)(c1ccccc1)c1ccccc1)C2 (stereo partly drawn)
Result: -2.38

Q: What about this compound? CN1CC2CC1C[C@H](OC(=O)C(c1ccccc1)c1ccccc1)C2 (stereo partly drawn)
Result: -2.39

Q: Follow-up entry: CC(=O)O[C@@H]1C[C@@H]2C[C@H](C1)N([C@H](C)c1ccccc1)C2 (stereo in doubt; 13)
Result: 0.67

Q: Moving on to CN1CC2CC1C[C@@H](OC(=O)C(C)(c1ccccc1)c1ccccc1)C2 (single isomer, unassigned; (-))
Result: -2.20

Q: Follow-up entry: CC(=O)O[C@H]1CC2CC(C1)N([C@H](C)c1ccccc1)C2 (stereo partly drawn)
Result: 1.00

Q: Next compound up: CC(=O)O[C@H]1CC2CC(C1)N(C)C2 (stereo in doubt; 8)
Result: 0.88

Q: Could you do the same for CC(=O)O[C@@H]1C[C@@H]2C[C@H](C1)N([C@H](C)c1ccccc1)C2 (stereo in doubt; 12) , please?
Result: 1.28

Q: For CC(=O)O[C@@H]1CC2CC(C1)N(C)C2 (single isomer, unassigned; (+)) then?
Result: 0.81

* * *

As a worked illustration, we turn to Ki data collected for Muscarinic acetylcholine receptor.

>>> measured_result("CC(=O)O[C@H]1CC2CC(C1)N(C)C2 (single isomer, unassigned; (-))")
"3.73 µM"
>>> measured_result("CN1CC2CC1C[C@@H](OC(=O)C(C)(c1ccccc1)c1ccccc1)C2 (single isomer, unassigned; (+))")
"2.97e-05 µM"
>>> measured_result("CC(=O)O[C@@H]1CC2CC(C1)N(C)C2 (single isomer, unassigned; (-))")
"23 µM"

Q: Look at this molecule and give its reported Ki. CC(=O)O[C@@H]1CC2CC(C1)N(C)C2 (stereo in doubt; 9)
Result: 8.55 µM

* * *

pKi overview
target: Muscarinic acetylcholine receptor M1 (Rattus norvegicus, UniProt P08482); assay: Binding activity against rat muscarinic acetylcholine receptor M1 using [3H]QNB as the radioligand
Entry type: numeric. Quantity: pKi, the -log10 of concentration in molar units.

Q: Endpoint output: pKi of CN1CC2CC1C[C@@H](OC(=O)C(C)(c1ccccc1)c1ccccc1)C2 (single isomer, unassigned; (-)) . Value?
Result: 8.10

* * *

target: Muscarinic acetylcholine receptor M1 (Rattus norvegicus, UniProt P08482); assay: The compound was tested for binding activity against muscarinic acetylcholine receptor M1, using [3H]QNB as the radioligand.
experimental readout: Ki

Q: If you can, please state the reported Ki value of CN1CC2CC1C[C@@H](OC(=O)C(C)(c1ccccc1)c1ccccc1)C2 (single isomer, unassigned; (+)) .
Result: 0.0383 nM

* * *

Measured Ki, listed per entry.
target: Muscarinic acetylcholine receptor M3 (Rattus norvegicus, UniProt P08483); experiment: Binding activity against rat muscarinic acetylcholine receptor M3 using [3H]QNB as the radioligand
Sequence (P08483 whole entry): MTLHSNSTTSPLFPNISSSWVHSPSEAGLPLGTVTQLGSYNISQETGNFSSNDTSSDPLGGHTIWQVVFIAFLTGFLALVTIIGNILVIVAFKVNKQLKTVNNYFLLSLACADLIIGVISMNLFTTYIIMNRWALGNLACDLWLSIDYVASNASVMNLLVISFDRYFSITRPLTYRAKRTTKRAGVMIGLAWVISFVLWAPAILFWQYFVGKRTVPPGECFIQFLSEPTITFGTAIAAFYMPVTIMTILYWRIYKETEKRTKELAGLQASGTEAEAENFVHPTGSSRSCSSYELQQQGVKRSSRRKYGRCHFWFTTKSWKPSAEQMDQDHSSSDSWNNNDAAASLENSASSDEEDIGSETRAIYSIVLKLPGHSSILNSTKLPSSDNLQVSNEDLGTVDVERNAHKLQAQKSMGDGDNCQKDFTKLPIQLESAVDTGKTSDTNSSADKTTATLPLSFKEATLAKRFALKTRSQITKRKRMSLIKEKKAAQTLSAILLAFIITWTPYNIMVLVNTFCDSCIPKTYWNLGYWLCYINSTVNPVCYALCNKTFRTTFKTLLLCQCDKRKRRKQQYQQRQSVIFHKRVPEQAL
Your answer should be a plain number; it is taken to be in µM.

>>> measured_result("CC(=O)O[C@@H]1CC2CC(C1)N(C)C2 (single isomer, unassigned; (+))")
11.3

Q: Recorded Ki of CN1CC2CC1C[C@H](OC(=O)C(c1ccccc1)c1ccccc1)C2 (stereo partly specified) , please.
Result: 0.0112

Q: Check CN1CC2CC1C[C@@H](OC(=O)C(C)(c1ccccc1)c1ccccc1)C2 (stereo in doubt; 1) too.
Result: 0.000472

Q: What would you report for CC(=O)O[C@H]1CC2CC(C1)N(C)C2 (single isomer, unassigned; (-)) ?
Result: 4.97

Q: Also need CC(=O)O[C@H]1CC2CC(C1)N(C)C2 (single isomer, unassigned; (+)) , thanks.
Result: 19.7

Q: Request: CC(C(=O)O[C@H]1CC2CC(C1)N(Cc1ccccc1)C2)(c1ccccc1)c1ccccc1 (stereo partly specified)
Result: 0.0125

Q: Now try CC(=O)O[C@@H]1CC2CC(C1)N(C)C2 (stereo in doubt; 9) .
Result: 14.1

Q: Same thing, different molecule: CC(=O)O[C@@H]1C[C@@H]2C[C@H](C1)N([C@H](C)c1ccccc1)C2 (stereo in doubt; 12)
Result: 29.9

Q: Query CC(=O)O[C@H]1CC2CC(C1)N(C(C)c1ccccc1)C2 (stereo partly specified) next
Result: 3.38

Q: Here is the next molecule: CC(=O)O[C@@H]1C[C@@H]2C[C@H](C1)N([C@H](C)c1ccccc1)C2 (stereo in doubt; 13)
Result: 4.28

Q: Now consider CC(=O)O[C@@H]1CC2CC(C1)N(C)C2 (single isomer, unassigned; (-)) and answer again.
Result: 46.7

Q: Please give the result for CC(=O)O[C@H]1CC2CC(C1)N([C@H](C)c1ccccc1)C2 (stereo partly specified) too.
Result: 14.9

Q: What about this molecule? CN1CC2CC1C[C@@H](OC(=O)C(c1ccccc1)c1ccccc1)C2 (stereo partly specified)
Result: 0.0043

Q: Now the molecule CN1CC2CC1C[C@@H](OC(=O)C(C)(c1ccccc1)c1ccccc1)C2 (single isomer, unassigned; (-))
Result: 0.0107

Q: For CN1CC2CC1C[C@H](OC(=O)C(C)(c1ccccc1)c1ccccc1)C2 (stereo partly specified) then?
Result: 0.00928

Q: Item: CC(=O)O[C@H]1CC2CC(C1)N(C)C2 (stereo in doubt; 8)
Result: 8.99
